Tested on: HL-60(TB) leukemia
protocol_summary: NCI-60 one-dose screen, 48 h
test_settings: 10 µM unless noted
The panel holds about 83,000 compounds, 20% with a hit somewhere; the sample as a whole holds those more often. The source made the active and inactive calls. Rule for the calls: active = growth percent below 10; inactive = the rest.
Respond with a class label; see t (active), f (inactive)

See these solved cases before continuing.
Short answer needed: outcome of this test for CC1=C2[C@@H](CC1)[C@]1(C)O[C@@](C3CC3)(C[C@H]1OC(=O)CO)[C@H]2OC(=O)/C=C/c1ccccc1 ?
f

Short answer needed: outcome of this test for COc1cc(NC2CCCCC2O)c2nc(-c3ccc(Cl)cc3)ccc2c1 (stereo not drawn) ?
f

Short answer needed: outcome of this test for N/N=C(/Cc1ccccc1)NNC(N)=S ?
f

Short answer needed: outcome of this test for COc1cc(NCCCCN=C(N)NC(N)=NC(C)C)c2ncccc2c1 ?
f

Short answer needed: outcome of this test for N#C/C(=C\c1ccc(-c2ccc(Cl)cc2)o1)c1nc(-c2ccco2)cs1 ?
f

Short answer needed: outcome of this test for O=C(N/N=C/c1ccccc1O)c1ccccc1Nc1ccnc(C(F)(F)F)c1 ?
t

Short answer needed: outcome of this test for CCOC(=O)c1ccc(NC(=O)CCCN(CC)CC)cc1 ?
f

Short answer needed: outcome of this test for N=C(N)c1ccc(-c2ccc(-c3cccs3)s2)s1 ?
t

Others:
Short answer needed: outcome of this test for O=c1oc2ccc(Cl)cc2c(=O)n1-c1ccc(Cl)cc1F ?
t

Short answer needed: outcome of this test for COc1cc2cc(Oc3ccc(NC(=O)Nc4ccc(F)c(C(F)(F)F)c4)cc3)c(C)nc2cc1OCCN1CCOCC1 ?
f

Short answer needed: outcome of this test for CC1=CC2OC34COC3CC(OC(=O)C(F)(F)F)C4(C)C2(C)CC1 (stereo not drawn) ?
f

Short answer needed: outcome of this test for COc1cc(-c2nn(-c3ccc(NC(=O)Nc4ccc(Cl)c(C(F)(F)F)c4)cc3)cc2-c2ccncc2)ccc1Cl ?
t

Short answer needed: outcome of this test for CC(C)CCSc1nc(Nc2ccccc2)c(C#N)c(-c2ccccc2)n1 ?
f

Short answer needed: outcome of this test for O=C(/C=C/c1sc(Cl)nc1Cl)c1ccc(F)cc1 ?
f

###

The following compounds are shown together with reported growth values.
Test system: HL-60(TB) leukemia
protocol_summary: NCI-60 one-dose screen, 48 h (100 = growth as untreated, 0 = no growth, -100 = all killed)
test_settings: 10 µM unless noted
The panel holds about 83,000 compounds, 20% with a hit somewhere; the sample as a whole holds those more often.
Write the value in % as a bare number.

Below, 8 compounds whose answers are already recorded.
// query growth value for entry CN1C(=O)N(C)C2(c3ccccc3)OC(=S)NC12c1ccccc1 (stereo not given)
95.6

// query growth value for entry COC12C=C/C(=C(/C(=O)OCc3ccccn3)C(=O)CCCCCCCCC3(OC)C=C/C(=C(/C(=O)OCc4ccccn4)C(=O)CCCCCCCC1)O3)O2
-19

// query growth value for entry O=C1c2c[n+](Cc3ccccc3)ccc2-c2nc3ccccc3c3ccnc1c23
-29.6

// query growth value for entry CCOC(=O)C(CC(c1ccccc1)N1CCCCC1)[N+](=O)[O-] (stereo not given)
73.4

// query growth value for entry COc1ccc(/C=C/C(=O)c2cc(OC)c(OC)c(OC)c2)cc1OCC(=O)Nc1nc2ccc(OC(F)(F)F)cc2s1
6.61

// query growth value for entry Cc1ccc(-c2csc(N)n2)cc1
112

// query growth value for entry Cc1ccc(NC(=O)c2sc3nc4c(cc3c2N)C(=O)CCC4)cc1
110

// query growth value for entry COc1cc(NC(C)CN(CC(C)C)C(C)C)c2ncccc2c1 (stereo not given)
101

Others:
// query growth value for entry O=C(Nc1ccc(I)cc1F)c1cc(F)ccc1O
-30.7

// query growth value for entry N#Cc1c(NN)n(C2OC(CO)C(O)C2O)c2ncnc(N)c12 (stereo not given)
-52.1

Reference for the values: PubChem BioAssay (NCI)
